test: Pharmacokinetics and oral bioavailability of GS-441524 in CD-1 mice; assay type: in vivo; conditions: male, CD-1, mouse, plasma, iv, 5 mg/kg
Recorded metric: clearance (mL/min/kg)

Chemical string: N#C[C@@]1(c2ccc3c(N)ncnn23)O[C@H](CO)[C@@H](O)[C@H]1O
Assay result: 20

----------
assay: Pharmacokinetics and oral bioavailability of GS-441524 in CD-1 mice; format: in vivo; details: male, CD-1, mouse, plasma, iv, 5 mg/kg

Chemical string: N#C[C@@]1(c2ccc3c(N)ncnn23)O[C@H](CO)[C@@H](O)[C@H]1O
half-life / h: 2.5

----------
assay: Pharmacokinetics and oral bioavailability of GS-441524 in CD-1 mice; type: in vivo; conditions: male, CD-1, mouse, plasma, iv, 5 mg/kg, AUC0‒t, iv 5 mg/kg, CD-1 mice
Recorded metric: AUC (µM·h)

Chemical string: N#C[C@@]1(c2ccc3c(N)ncnn23)O[C@H](CO)[C@@H](O)[C@H]1O
Recorded metric: AUC
Assay result: 14.8

----------
assay: Pharmacokinetics and oral bioavailability of GS-441524 in CD-1 mice; type: in vivo; details: male, CD-1, mouse, plasma, iv, 5 mg/kg, Cmax, iv 5 mg/kg, CD-1 mice

Chemical string: N#C[C@@]1(c2ccc3c(N)ncnn23)O[C@H](CO)[C@@H](O)[C@H]1O
Cmax: 11.6 µM

----------
test: Pharmacokinetics and oral bioavailability of GS-441524 in CD-1 mice; assay type: in vivo; conditions: male, CD-1, mouse, plasma, po, 10 mg/kg
Recorded metric: Tmax (h)

Chemical string: N#C[C@@]1(c2ccc3c(N)ncnn23)O[C@H](CO)[C@@H](O)[C@H]1O
Assay result: 1

----------
assay: Pharmacokinetics and oral bioavailability of GS-441524 in CD-1 mice; assay type: in vivo; conditions: male, CD-1, mouse, plasma, iv, 5 mg/kg

Chemical string: N#C[C@@]1(c2ccc3c(N)ncnn23)O[C@H](CO)[C@@H](O)[C@H]1O
Unit string: L/kg
Vd: 4.2
